Overview of reported RLM (% remaining @ 30 minutes) across a group of molecules:
MEASUREMENT PROTOCOL: Microsomal stability assay, rat liver microsomes (RLM)
Type: in vitro ADME
CONDITION DESCRIPTION: rat liver microsomes 0.5 mg/mL, 1 uM substrate, 2 mM NADPH, 37° C., vs time zero control

>  <SMILES CODE>
O=C(Nc1cc[nH]c(=O)c1)c1ccc(C(F)(F)F)cc1OCC1CCCC1

>  <RLM (% remaining @ 30 minutes), %>
79

$$$$
>  <SMILES CODE>
O=C(Nc1cc[nH]c(=O)c1)c1cc(OC(F)(F)F)ccc1Oc1ccc(F)cc1Cl

>  <RLM (% remaining @ 30 minutes), %>
97

$$$$
>  <SMILES CODE>
COc1cc(F)ccc1Oc1cc(C(F)(F)C(F)(F)F)ccc1C(=O)Nc1cc[nH]c(=O)c1

>  <RLM (% remaining @ 30 minutes), %>
90

$$$$
>  <SMILES CODE>
CCOc1ccc(Oc2ccc(C(F)(F)F)cc2C(=O)Nc2cc[nH]c(=O)c2)cc1

>  <RLM (% remaining @ 30 minutes), %>
84

$$$$
>  <SMILES CODE>
COc1ccc(Oc2cc(Cl)c(Cl)cc2C(=O)Nc2cc[nH]c(=O)c2)cc1F

>  <RLM (% remaining @ 30 minutes), %>
95

$$$$
>  <SMILES CODE>
Cc1cc(F)ccc1Oc1cc(C(F)(F)F)ccc1C(=O)Nc1cc[nH]c(=O)c1

>  <RLM (% remaining @ 30 minutes), %>
82

$$$$
>  <SMILES CODE>
COc1cc(F)ccc1Oc1cc(Cl)c(Cl)cc1C(=O)Nc1cc[nH]c(=O)c1

>  <RLM (% remaining @ 30 minutes), %>
82

$$$$
>  <SMILES CODE>
COCCOc1ccc(Oc2cc(C(F)(F)F)ccc2C(=O)Nc2cc[nH]c(=O)c2)cc1

>  <RLM (% remaining @ 30 minutes), %>
86

$$$$

====

MEASUREMENT PROTOCOL: Microsomal stability assay, rat liver microsomes (RLM)
Type: in vitro ADME
CONDITION DESCRIPTION: rat liver microsomes 0.5 mg/mL, 1 uM substrate, 2 mM NADPH, 37° C., vs time zero control
Label Y when RLM (% remaining @ 30 minutes) is strictly below 90%; at or above that, label N.

>  <COMPOUND>
Cc1ccccc1Oc1ccc(C(F)(F)F)cc1C(=O)Nc1cc[nH]c(=O)c1 [Compound 28]

>  <CLASS ASSIGNMENT>
Y

$$$$
>  <COMPOUND>
O=C(Nc1cc[nH]c(=O)c1)c1c(Oc2ccc(F)cc2F)cc(C(F)(F)F)cc1C(F)(F)F [Compound 152]

>  <CLASS ASSIGNMENT>
N

$$$$
>  <COMPOUND>
O=C(Nc1cc[nH]c(=O)c1)c1ccc(C(F)(F)F)cc1Oc1ccc(OC(F)F)cc1 [Compound 82]

>  <CLASS ASSIGNMENT>
N

$$$$
>  <COMPOUND>
O=C(Nc1cc[nH]c(=O)c1)c1cc(C(F)(F)F)ccc1Oc1ccccc1OC(F)F [Compound 76]

>  <CLASS ASSIGNMENT>
N

$$$$
>  <COMPOUND>
O=C(Nc1cc[nH]c(=O)c1)c1cc(F)c(Cl)cc1Oc1ccc(F)cc1Cl [Compound 109]

>  <CLASS ASSIGNMENT>
N

$$$$
>  <COMPOUND>
O=C(Nc1cc[nH]c(=O)c1)c1ccc(C(F)(F)F)cc1Oc1ccc(OC(F)(F)F)cc1 [Compound 79]

>  <CLASS ASSIGNMENT>
N

$$$$
